Give melting point for every item shown.

| COMPOUND | melting point |
| --- | --- |
| CN(C)C(=O)c1cccc2nc3n(c12)CCCN3c1ccc(Cl)cc1Cl | 212 to 213 °C |
| CCC(CC(N)=O)c1cccc2nc3n(c12)CCCN3c1ccc(Cl)cc1Cl (stereo not shown) | 132 to 133 °C |
| CCC(CC)c1ccc(Cl)c2nc3n(c12)CCCCN3c1cnc(C#N)cc1C | 177 to 178 °C |
| CCC(CC)c1ccc(Cl)c2nc3n(c12)CCCCN3c1cnc(N(C)C)cc1C | 156 to 157 °C |
| OC(c1ccc(Cl)c2nc3n(c12)CCCN3c1ccc(Cl)cc1Cl)(C(F)(F)F)C(F)(F)F | 237 to 240 °C |

Hey, can you go through the list below and give me melting point for every item?
1. CCC(CC)c1ccc(Cl)c2nc3n(c12)CCCCN3c1ncc([N+](=O)[O-])cc1C
2. CCC(=O)c1cccc2nc3n(c12)CCCN3c1ccc(Cl)cc1Cl
3. COc1nc(C)nc(OC)c1N1CCCn2c1nc1c(Cl)ccc(C(O)(C3CC3)C3CC3)c12
4. CCc1cc(CC)n(-c2ccc(Cl)c3nc4n(c23)CCCN4c2ccc(Cl)cc2Cl)n1
5. CC(=O)OC(C)c1ccc(Cl)c2nc3n(c12)CCCN3c1ccc(Cl)cc1Cl (stereo not shown)
6. CCC(CC)c1ccc(Cl)c2nc3n(c12)CCCCN3c1ncc(C(F)(F)F)cc1Cl

Result block:
204 to 205 °C
195 to 196 °C
204 to 205 °C
185 to 187 °C
204 to 206 °C
108 to 110 °C

* * *

Give melting point for every item shown.

Please review the entries below; each comes with its answer.
| COMPOUND | melting point |
| --- | --- |
| Cc1cc(Cl)cc(Cl)c1N1CCn2c1nc1cccc(C(O)(C3CC3)C3CC3)c12 | 243 to 246 °C |
| CCC(O)c1ccc(Cl)c2nc3n(c12)CCCN3c1c(Cl)cc(OC)cc1Cl (centres unmarked) | 206 to 208 °C |
| Cc1cc(Cl)cc(Cl)c1N1CCCn2c1nc1c(Cl)ccc(C(O)(C3CC3)C3CC3)c12 | 210 to 212 °C |

Hey, can you go through the list below and give me melting point for every item?
1. CCC(CC)c1ccc(Cl)c2nc3n(c12)CCN3C(=O)c1ccc(Cl)nc1
2. COc1ccc(N2CCCn3c2nc2c(Cl)ccc(C(O)(C4CC4)C4CC4)c23)c(C)n1
3. CCC(O)(CC)c1ccc(Cl)c2nc3n(c12)CCCN3c1ccc(Cl)cc1C(F)(F)F
4. COc1nc(C)c(N2CCCn3c2nc2c(C#N)ccc(C(OC(F)F)C(F)(F)F)c23)c(C)n1 (centres unmarked)
5. CCN(CC)c1cccc2nc3n(c12)CCCN3c1ccc(Cl)cc1Cl

Result block:
205 to 207 °C
208 to 210 °C
178 to 180 °C
250 to 252 °C
131 to 133 °C

* * *

Give melting point for every item shown.

| MOLECULE | melting point |
| --- | --- |
| CCC(OC(=O)C1CC1)c1ccc(Cl)c2nc3n(c12)CCCN3c1ccc(OC)cc1Cl (centres unmarked) | 130 to 132 °C |
| CCC(CC(C)=O)c1ccc(Cl)c2nc3n(c12)CCCN3c1ccc(Cl)cc1Cl (centres unmarked) | 195 to 197 °C |
| CCC(OC(C)=O)c1ccc(Cl)c2nc3n(c12)CCCN3c1cnc(N(C)C)cc1C (centres unmarked) | 159 to 160 °C |
| CCC(CC)c1ccc(Cl)c2nc3n(c12)CCCCN3c1cnc(C(C)=O)cc1C | 144 to 145 °C |
| CCC(CC)c1cccc2nc3n(c12)CCCCN3c1ccc(OC)cc1OC | 145 to 148 °C |
| CCC(OC(C)=O)c1ccc(Cl)c2nc3n(c12)CCN3c1c(C)cc(Cl)cc1Cl (centres unmarked) | 190 to 192 °C |
| CCC(CC)c1ccc(Cl)c2nc3n(c12)CCN3c1ccc(Br)cc1Cl | 165 to 168 °C |

For the next question, use this molecule.
Query block: Bench note: what melting point did CCC(CC)c1ccc(Cl)c2nc3n(c12)CCCC(=O)N3c1ccc(Cl)cc1Cl show?
Result block: 135 to 137 °C
